- System: Plasmodium falciparum
- test-protocol: GSK_TCMDC: Inhibition of Plasmodium falciparum Dd2 in whole red blood cells, using parasite LDH activity as an index of growth. Test compounds present at 2uM
- Assay type: functional
readout-type: Inhibition (%)
Field: numeric (%). Do not append units.

Solved cases below.
O=C(COc1ccc(F)cc1)NC1CCN(c2ccnc3cc(Cl)ccc23)C1.O=C(O)C(F)(F)F (centres undefined)
100
Fc1ccc2[nH]c(-c3cccc(-c4cccc(CNCC5CCCO5)c4)c3)nc2c1.O=C(O)C(F)(F)F (centres undefined)
94

**Q:** Bench note: what Inhibition did `COc1ccc2nccc(N3C[C@H]4C[C@@H]3CN4CCNCc3ccc4c(n3)NC(=O)CS4)c2n1.Cl` show?
**A:** 0

**Q:** Bench note: what Inhibition did Cc1cccc(-n2nc(C)c3c2NC(=O)CC3C(=O)c2ccc(Cl)s2)c1 (centres undefined) show?
**A:** 85

====

- System: Plasmodium falciparum
- test-protocol: GSK_TCMDC: Inhibition of Plasmodium falciparum Dd2 in whole red blood cells, using parasite LDH activity as an index of growth. Test compounds present at 2uM
- Assay type: functional
readout-type: Inhibition (%)
Field: numeric (%). Do not append units.

Solved cases below.
Cc1nc(-c2nc(N3CCC(O)CC3)ncc2-c2ccsc2)sc1C
35
CCCC(C)Nc1nc(C)cc(N[C@@H](CC(C)C)C(=O)NC2CCCC2)n1.O=C(O)C(F)(F)F (some centres undefined)
22
CN1CCCC(CN2CCN(Cc3cccc(-c4ccc(-c5nc6cc(F)ccc6[nH]5)cc4)c3)CC2)C1.O=C(O)C(F)(F)F (centres undefined)
100
Br.c1ccc(-c2nc(Nc3ccncc3)sc2-c2ccccc2)cc1
18
CCC1N=C(N)N=C(N)N1OCc1cccc2ccccc12 (centres undefined)
1

**Q:** Please provide the recorded Inhibition for `NC1CCN(c2nc(NCCc3ccc(O)cc3)nc(NCc3ccccc3-c3ccccc3)n2)CC1.O=C(O)C(F)(F)F` , tested on Plasmodium falciparum.
**A:** 32

**Q:** Please provide the recorded Inhibition for COc1ccc(C(O)CNC(C)CCc2ccc(F)cc2)cc1C(F)(F)F.Cl (centres undefined) , tested on Plasmodium falciparum.
**A:** 98

**Q:** Please provide the recorded Inhibition for Fc1ccc2[nH]c(-c3cccc(-c4ccc(CNCC5CCCO5)cc4)c3)nc2c1.O=C(O)C(F)(F)F (centres undefined) , tested on Plasmodium falciparum.
**A:** 98

**Q:** Please provide the recorded Inhibition for `Cc1ccccc1OCCCc1c(C)nc(N)nc1N` , tested on Plasmodium falciparum.
**A:** 1

**Q:** Please provide the recorded Inhibition for `CC(=O)Nc1cccc(Nc2nccc(Nc3ccc(Oc4ccccc4)cc3)n2)c1.Cl` , tested on Plasmodium falciparum.
**A:** 99

====

- System: Plasmodium falciparum
- test-protocol: GSK_TCMDC: Inhibition of Plasmodium falciparum Dd2 in whole red blood cells, using parasite LDH activity as an index of growth. Test compounds present at 2uM
- Type: functional
readout-type: Inhibition (%)
Field: numeric (%). Do not append units.

Solved cases below.
COc1ccc(CCNc2nc(NCCc3cnc[nH]3)nc(NCc3cccc4ccccc34)n2)cc1OC
16
Cl.NC1CCN(Cc2cccc(-c3ccc(-c4nc5cc(C(F)(F)F)ccc5[nH]4)cc3)c2)C1 (centres undefined)
97
COc1ccc(CCN2CC[C@H](Nc3nc(-c4ccc(F)c(F)c4)nc4ccccc34)C2)cc1S(N)(=O)=O.Cl
64
CC(C)CNC(=O)c1cncc(-c2ccc(CN3CCC(N4CCCC4)CC3)cc2)c1.O=C(O)C(F)(F)F
42
O=C(NCCN1CCCC1)c1ccc(-c2ccc(-c3nc4cc(C(F)(F)F)ccc4[nH]3)s2)cc1
65

**Q:** Bench note: what Inhibition did Cc1cc(NC(=O)NCCN2CCC(NS(=O)(=O)c3ccc(C(F)(F)F)cc3)C2)c2ccccc2n1.O=C(O)C(F)(F)F (centres undefined) show?
**A:** 39

**Q:** Bench note: what Inhibition did `Cc1cc2nc(-c3ccc(/C=C/C(=O)NCCc4ccccc4)cc3)[nH]c2cc1C` show?
**A:** 13

**Q:** Bench note: what Inhibition did `O=C(Nc1cccc(CN2CCN(C(=O)c3cccc(Cl)c3)CC2)c1)c1ccco1.O=C(O)C(F)(F)F` show?
**A:** 94

**Q:** Bench note: what Inhibition did `Fc1ccc2c(NN=Cc3ccccc3)ccnc2c1` show?
**A:** 99
